// provenance: PubChem BioAssay (NCI)

Test system: SK-MEL-2 melanoma
Procedure summary: NCI tumour cell line growth inhibition, 48 h
Hi there, I'd appreciate the recorded TGI for every entry that follows.

Exercise: Query for SK-MEL-2 melanoma: what TGI does the record show for CNC(=O)c1c(C)oc2cc(Oc3ncnc4cc(OC)c(OC)cc34)ccc12 ?
Key: > 100 µM

Exercise: Form field - read-out: TGI; system: SK-MEL-2 melanoma; submitted item: CCOC(=O)Cc1csc(NC(NC(=O)OCC)(C(=O)OCC)C(F)(F)F)n1 (stereo not given)
Key: > 100 µM

Exercise: GET /values?readout=TGI&system=SK-MEL-2 melanoma&item= N#CC12C(=O)N3C(=NC(c4ccco4)NC3c3ccco3)C1(C#N)C(c1ccco1)NC1=C2CCCC1 (stereo not given)
Key: > 100 µM

Exercise: Provide the documented TGI with SK-MEL-2 melanoma as the system for CC(C)C[C@H](NC(=O)CNC(=O)c1cc(Cl)ccc1Cl)B(O)O
Key: 0.0364 µM

Exercise: Lab note: need TGI for COc1ccc(C2SC(N)=Nc3c2c(C)nn3C(=O)c2ccccc2O)cc1OC (stereo not given) on SK-MEL-2 melanoma, anyone have it?
Key: > 10 µM

====

System: RXF 393 renal
Procedure summary: NCI tumour cell line growth inhibition, 48 h
Quantity kind: TGI

Exercise: Given the entry O=C(COc1ccc(Cl)c(Cl)c1)Nc1ccc[n+](Cc2ccc(S(=O)(=O)F)c(Cl)c2)c1 , report its measured TGI.
Key: > 100 µM

Exercise: Record request: TGI value, item C/C=C(\C)c1cc(=O)c2c(C)cc3c(c2o1)C(=O)c1c(O)c(C2CC(C)(N(C)C)C(OC(C)=O)C(C)O2)cc(C2CC(N(C)C)C(O)C(C)O2)c1C3=O (centres undefined)
Key: 1.27 µM

Exercise: Item N#CC(c1ccccc1)N(CCCCCCN(C(=O)c1ccccc1)C(C#N)c1ccccc1)C(=O)c1ccccc1 (centres undefined) has what recorded TGI?
Key: > 100 µM

Exercise: Quick one: TGI for CCOC1CN=C(Nc2cccc3ccccc23)S1 (centres undefined) ?
Key: > 10 µM

====

Assign log10 of TGI to each entry below.
Tested on: UO-31 renal
Procedure summary: NCI tumour cell line growth inhibition, 48 h
In our notation, the value equals log10 of TGI in µM.

Exercise: Reported log10 of TGI for Nc1nc(/C=C\c2ccc([N+](=O)[O-])s2)nc(N2CCN(c3ccccc3)CC2)n1 : what is it?
Key: 1.64

Exercise: Report log10 of TGI for OC(CNc1ccnc2cc(Cl)ccc12)CNc1ccnc2cc(Cl)ccc12 please.
Key: 1.58

Exercise: Endpoint output: log10 of TGI of O=c1c2ccccc2sc2c(NCCCNCCO)nc3ccccc3c12 . Value?
Key: 0.48

Exercise: State the recorded log10 of TGI for this entry: COc1ccc2c3c1OC1C(F)C=CC4(O)C(C2)NCCC314 (stereo unspecified)
Key: 0.66

Exercise: Record request: log10 of TGI value, item Cc1onc(-c2ccccc2)c1C(=O)N/N=C/c1cc(Cl)cc(Cl)c1O
Key: 1.11

Exercise: If you can, please state the reported log10 of TGI value of CN[C@H]1CN(c2ccc3c(=O)c(C(=O)O)cn(-c4nccs4)c3n2)C[C@@H]1OC .
Key: 0.47

Exercise: What does the data say about its log10 of TGI? Entry: C/C=C(\C)c1cc(=O)c2c(C)cc3c(c2o1)C(=O)c1c(O)c(C2CC(C)(N(C)C)C(OC(C)=O)C(C)O2)cc(C2CC(N(C)C)C(O)C(C)O2)c1C3=O (stereo unspecified)
Key: 0.90

====

System: OVCAR-5 ovarian
Procedure summary: NCI tumour cell line growth inhibition, 48 h
Quantity kind: TGI

Exercise: Sample Cc1cnc2n1S(=O)(=O)c1cc(C(=O)Nc3cccc4nsnc34)c(Cl)cc1S2 — what was its TGI?
Key: > 100 µM

Exercise: Requested field: TGI. Item: CC(=O)Oc1ccccc1
Key: > 100 µM

Exercise: Entry CCOC(=O)C1(C#N)OC(=O)c2cnccc21 (stereo not drawn) has what TGI?
Key: > 100 µM

====

Test system: RXF 393 renal
Procedure summary: NCI tumour cell line growth inhibition, 48 h
Quantity kind: TGI

Exercise: Name the reported TGI value associated with the molecule CC1=N/C(=C/c2ccc3c(c2)OCO3)C(=O)O1
Key: > 100 µM

Exercise: Would you mind telling me what TGI value was observed for CC(=O)NC1C(OC(C)C(=O)NC(C)C(=O)NC(CCC(=O)NCCCCCNc2ccc([N+](=O)[O-])c3[nH]c4ccccc4c(=O)c23)C(N)=O)C(O)C(CO)OC1(C)OCc1ccccc1 (configuration not stated) ?
Key: > 100 µM

Exercise: Requested read-out: TGI. Entry: O=C1[C@H]2ON(c3ccccc3)C(c3ccc([N+](=O)[O-])cc3)[C@H]2C(=O)N1c1ccc(Cc2ccc(N3C(=O)[C@@H]4ON(c5ccccc5)C(c5ccc([N+](=O)[O-])cc5)[C@@H]4C3=O)cc2)cc1 (some centres not stated)
Key: > 100 µM

Exercise: Field request: TGI | item: CSc1ncnc2c1ncn2CCC(=O)O
Key: > 100 µM

Exercise: Quick one: TGI of COC1/C=C(C)/C=C/C(C)/C=C/C(=O)OC(/C(C)=C/C=C(\C)CNC(=O)[C@H](CO)NC=O)C(C)/C=C/C=C/C(OC)CC/C=C(C)/C=C/C1 (some centres not stated) ?
Key: > 1 µM

Exercise: Fill in the blank: the reported TGI of O=C(CCC(=O)Nc1ccc(Cl)c(Cl)c1)Cc1nc2ccccc2o1 is ____.
Key: > 100 µM

Exercise: May I ask what TGI has been recorded for O=C1C2C(C(=O)N1c1ccccc1)C1(c3ccccc3)CCC2(C(=O)c2ccccc2)O1 (configuration not stated) ?
Key: > 10 µM

Exercise: Endpoint output: TGI of COC(=O)[C@]12CC3C=CC1N(C3)C(CBr)c1c2n(S(=O)(=O)c2ccccc2)c2ccccc12 (some centres not stated) . Value?
Key: > 100 µM

Exercise: I have this molecule here, COc1cccc(/C=N/n2c(Cc3ccccc3)n[nH]c2=O)c1 , and I need its recorded TGI.
Key: > 100 µM

Exercise: Would you kindly share the measured TGI for O=C(C(=O)c1cc2ccccc2[nH]1)c1cc2ccccc2[nH]1 ?
Key: > 347 µM

Exercise: TGI lookup needed for CC(=O)c1nc2ccccc2n1C(C)C(=O)c1ccccc1 (configuration not stated) , thanks.
Key: > 100 µM

Exercise: // TGI lookup, key: CCc1cccc(C(C)C)c1NC(=O)C(=O)C1C(=O)Nc2ccccc2S1=O (configuration not stated)
Key: > 100 µM

====

Please respond with reported TGI for every item in the list.
Tested on: MALME-3M melanoma
Procedure summary: NCI tumour cell line growth inhibition, 48 h

Exercise: Need TGI, item CC(=O)Nc1ccc2c(c1)/C(=C\c1ccc([N+](C)(C)C)cc1)c1ccccc1-2
Key: > 100 µM

Exercise: I have this compound here, CCOC(=O)C(C(=O)OCC)=C1SC(=Nc2ccccc2)C(=Nc2ccccc2)N1c1ccccc1 , and I need its recorded TGI.
Key: > 100 µM

Exercise: Form field: reported TGI of CC(C)(O)C(O)COc1c2c(cc3oc(=O)ccc13)OCO2 (stereo not given)
Key: > 100 µM

Exercise: Give the measured TGI of Cc1ccc2c(=O)cc(-c3sccc3C)[nH]c2n1 .
Key: > 69.1 µM

Exercise: Entry O=C(O)c1ccccc1C(=O)NCC1S(=O)(=O)OCCOS1(=O)=O has what TGI?
Key: > 100 µM

====

Tested on: HCT-15 colon
Procedure summary: NCI tumour cell line growth inhibition, 48 h; in the data active = GI50 below about 0.43 µM; inactive = the rest
Use one of these outcomes when replying: True for active, False for inactive

Exercise: Please state the recorded outcome for this compound: COC(=O)[C@@H]1c2cc3c(c(O)c2[C@@H](OC2OC(C)C(OC)C(C)(OC)C2OC)C[C@]1(C)O)C(=O)c1c(O)cc2c(c1C3=O)O[C@H]1O[C@]2(C)[C@H](O)[C@@H](N(C)C)[C@@H]1O (stereo not given in full)
Key: True

Exercise: Hi, do you know how CC(C)(C)C(=O)OCOP(=O)(NCc1ccccc1)C1CCCN(O)C1=O (stereo not given) came out in this test?
Key: False

Exercise: // param item: COc1cc(/C=C2\CC3C4CC=C5C[C@@H](OC(C)=O)CC[C@]5(C)C4CC[C@]3(C)C2=O)ccc1OCCN1CCCCC1 (stereo not given in full) ; yields the recorded call
Key: False

Exercise: Please indicate how the test categorized Cc1nn(CNc2ccccc2C(F)(F)F)c(=S)n1/N=C/c1cccc2cccnc12 .
Key: False

Exercise: Called result for O=C1NC(=C(Cl)Cl)/C(=N/S(=O)(=O)N2CCCCC2)N1
Key: False

====

Tested on: DU-145 prostate
Procedure summary: NCI tumour cell line growth inhibition, 48 h
Quantity kind: TGI

Exercise: GET /values?readout=TGI&item= O=C(O)CCNCC(=O)O
Key: > 100 µM

Exercise: I would be grateful if you could share the reported TGI for CC(=O)c1nc2ccccc2n1C(C)C(=O)c1ccccc1 (stereo not drawn) .
Key: > 100 µM

Exercise: What value of TGI has been recorded for this entry: Cc1cc(S(=O)(=O)Nc2n[nH]c(-c3ccc(Cl)cc3)n2)c(SSc2cc(Cl)c(C)cc2S(=O)(=O)Nc2n[nH]c(-c3ccc(Cl)cc3)n2)cc1Cl
Key: > 100 µM
